What log10 of IC50 was measured for each of the following?
Molecular target: human muscarinic acetylcholine M3 receptor (M3-ACh) (Homo sapiens)
Construct: expressed in transfected cells; host or cells: CHO-K1 (Chinese Hamster Ovary) cell membranes
Sequence (P20309 whole entry): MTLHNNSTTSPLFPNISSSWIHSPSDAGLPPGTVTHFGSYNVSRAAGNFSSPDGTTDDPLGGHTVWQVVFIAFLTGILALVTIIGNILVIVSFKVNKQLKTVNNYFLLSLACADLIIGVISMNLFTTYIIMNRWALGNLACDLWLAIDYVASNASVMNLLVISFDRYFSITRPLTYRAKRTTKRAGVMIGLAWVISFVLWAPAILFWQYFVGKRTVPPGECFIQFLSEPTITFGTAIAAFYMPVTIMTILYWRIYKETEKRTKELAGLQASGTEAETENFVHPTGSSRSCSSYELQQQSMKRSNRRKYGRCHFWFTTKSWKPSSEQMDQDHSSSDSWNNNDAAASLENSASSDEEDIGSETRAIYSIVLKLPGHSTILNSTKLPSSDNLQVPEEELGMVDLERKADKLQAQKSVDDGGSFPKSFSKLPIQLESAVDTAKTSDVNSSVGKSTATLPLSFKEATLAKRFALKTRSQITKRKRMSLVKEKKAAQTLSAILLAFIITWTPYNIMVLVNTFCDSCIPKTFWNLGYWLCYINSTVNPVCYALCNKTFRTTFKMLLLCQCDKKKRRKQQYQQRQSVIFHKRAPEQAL
Test: Muscarinic 3 Receptor Binding Assay ([3H]NMS competition, SPA)
Details: [3H]NMS 0.1 nM, CHO-K1 cell membranes, 16 hours at room temperature; read-out: M3 pIC50 (converted)
Where a name gives a salt, the structure may show the parent alone.
Values reflect log10 of reported IC50 (nM).

For orientation, consider the following solved cases.
Cc1nc(C(=O)N2CCOC3(CCN(Cc4cccc(CCNC[C@H](O)c5ccc(O)c6[nH]c(=O)sc56)c4)CC3)C2)cs1 [Example 6, ditrifluoroacetate] | -0.50
O=C(c1csc(C2CCC2)n1)N1CCOC2(CCN(CCCCCCCCCNC[C@H](O)c3ccc(O)c4[nH]c(=O)sc34)CC2)C1 | -0.20
Cc1ccc(C(=O)N2CCOC3(CCN(CCCCCCCCCNC[C@H](O)c4ccc(O)c5[nH]c(=O)sc45)CC3)C2)s1 [Example 111, formate] | -0.10

Here are 6 molecules. What values of log10 of IC50 were reported for them?
1. CC(C)c1nc(C(=O)N2CCOC3(CCN(CCOc4ccc(CNC[C@H](O)c5ccc(O)c6[nH]c(=O)sc56)cc4)CC3)C2)cs1 [Example 108, formate]
2. Cc1nc(C(=O)N2CCOC3(CCN(CCOc4cc(C)c(CNC[C@H](O)c5ccc(O)c6[nH]c(=O)ccc56)cc4C)CC3)C2)cs1 [Example 97, ditrifluoroacetate]
3. Cc1nc(C(=O)N2CCOC3(CCN(CCOc4ccc(CNC[C@H](O)c5ccc(O)c6[nH]c(=O)sc56)cc4)CC3)C2)cs1 [Example 1, ditrifluoroacetate]
4. CC(C)Cc1nc(C(=O)N2CCOC3(CCN(Cc4cccc(CCNC[C@H](O)c5ccc(O)c6[nH]c(=O)sc56)c4)CC3)C2)cs1 [Example 84, ditrifluoroacetate]
5. CC(C)(C)c1nc(C(=O)N2CCOC3(CCN(Cc4cc(F)cc(CCNC[C@H](O)c5ccc(O)c6[nH]c(=O)sc56)c4)CC3)C2)cs1 [Example 50, ditrifluoroacetate]
6. CC(C)c1nc(C(=O)N2CCOC3(CCN(CCCCCCSCCNC[C@H](O)c4ccc(O)c5[nH]c(=O)sc45)CC3)C2)cs1 [Example 101, formate]

[0.60, 0.80, 0.50, -0.10, 1.60, -0.50]

Provide the reported log10 of IC50 of each entry below, same order.
1. CC(C)c1cc(C(=O)N2CCOC3(CCN(CCCCCCCNC[C@H](O)c4ccc(O)c5[nH]c(=O)sc45)CC3)C2)cs1 [Example 284, formate]
2. O=C(c1csc(C(F)(F)F)n1)N1CCOC2(CCN(Cc3cccc(CCNC[C@H](O)c4ccc(O)c5[nH]c(=O)sc45)c3)CC2)C1 [Example 26, ditrifluoroacetate]
3. Cc1nc(C(=O)N2CCOC3(CCN(Cc4ccc(CCNC[C@H](O)c5ccc(O)c6[nH]c(=O)ccc56)cc4)CC3)C2)cs1 [Example 17, ditrifluoroacetate]
4. CC(C)c1nc(C(=O)N2CCOC3(CCN(Cc4cccc(OCCNC[C@H](O)c5ccc(O)c6[nH]c(=O)sc56)c4)CC3)C2)cs1 [Example 64, ditrifluoroacetate]
5. O=C(c1csc(CC(F)(F)F)n1)N1CCOC2(CCN(Cc3cccc(CCNC[C@H](O)c4ccc(O)c5[nH]c(=O)sc45)c3F)CC2)C1 [Example 67, ditrifluoroacetate]
6. CC(C)c1nc(C(=O)N2CCOC3(CCN(Cc4csc(CCNC[C@H](O)c5ccc(O)c6[nH]c(=O)sc56)c4)CC3)C2)cs1 [Example 278, ditrifluoroacetate]
7. O=C(c1csc(-c2ccccc2)n1)N1CCOC2(CCN(Cc3cc(F)cc(CCNC[C@H](O)c4ccc(O)c5[nH]c(=O)sc45)c3)CC2)C1 [Example 41, ditrifluoroacetate]
8. CC(C)c1ncc(C(=O)N2CCOC3(CCN(Cc4cc(F)cc(CCNC[C@H](O)c5ccc(O)c6[nH]c(=O)sc56)c4)CC3)C2)s1 [Example 55, ditrifluoroacetate]

0.30
-0.20
1.70
-0.70
0.50
-0.40
2.10
1.80
